System: β-Glucosidase from almonds
TEST_DESCRIPTION: Glycosidase inhibition, spectrophotometric p-nitrophenyl glycoside assay
COND: 1 mM inhibitor; 37 °C, 30 min; NI = no inhibition up to 20 mM
Percentage inhibition (%) at 1 mM concentration of the inhibitor values by entry
VALUE_TYPE: Percentage inhibition (%) at 1 mM concentration of the inhibitor

COMPOUND | MEASURED_NUMBER
C[C@@H]1CC[C@@H](O)[C@@H](O)[C@@H](O)[C@@H]1O [Compound 16] | 29.8
C[C@H]1CC[C@@H](O)[C@@H](O)[C@@H](O)[C@@H]1O [Compound 15] | 14.1
O=C1CC=C(CO)[C@@H](O)[C@H](O)[C@@H]1O [Compound 4] | 12.3
OCC1=CC[C@@H](O)[C@@H](O)[C@@H](O)[C@@H]1O [Compound 6] | 3.2
